Assay: Drug repurposing screens with cells derived from glioblastoma tumor samples (AID 1345199); further: on the % scale 0 is the no-effect control and ±100 the full control effect; nearly all actives have a fitted effect of over 40% in size
Conditions: GBM patient neurospheres viability, ATP luminescence, 48 h; at 21.3 µM (top of the series); tumour line A
Records with an inconclusive call do not appear. Calls of active or inactive are those of the source. The call rests on the fitted dose curve; in most records, active means well fitted inhibition curve with a large enough effect; inconclusive means small, poorly fitted or top-dose-only effect; inactive means flat fitted curve, though single readings scatter.
MEASURED_PROPERTY: activity, negative = cell killing

>>> test_result("C[C@@H](O)[C@H]1C(=O)N2C(C(=O)O)=C(SCCN=CN)C[C@H]12")
"-14.5% (inactive)"
>>> test_result("CC(C)(Oc1ccc(CCNC(=O)c2ccc(Cl)cc2)cc1)C(=O)O")
"-25.9% (inactive)"
>>> test_result("CC[N+](C)(C)c1cccc(O)c1")
"-22.7% (inactive)"
>>> test_result("CC(=O)Oc1cc(C(C)C)c(OCCN(C)C)cc1C")
"-22.5% (inactive)"

====

Assay: qHTS for differential inhibitors of proliferation of Plasmodium falciparum line 7G8 (AID 1815);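 further: parasite growth measured after three days of incubation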
Conditions: Plasmodium falciparum 7G8 proliferation inhibition; series mostly up to 28.7 µM
Records with an inconclusive call do not appear. The source made the active and inactive calls. Calls follow the shape of the dose curve; as a rule, active = well fitted curve in the direction sought with a large enough effect; inconclusive = small, poorly fitted or top-dose-only effect, or another doubt; inactive = no such curve, though single readings can be large or run the other way.
Classes used: active, inactive

>>> class_assignment("CN1CCN(C2=Nc3ccccc3Oc3ccc(Cl)cc32)CC1")
"active"
>>> class_assignment("CC(C)NCC(O)c1cc(O)cc(O)c1 (stereo unspecified)")
"inactive"
>>> class_assignment("Cc1nc2sccn2c(=O)c1CCN1CCC(=C(c2ccc(F)cc2)c2ccc(F)cc2)CC1")
"active"
>>> class_assignment("NCCCNCCSP(=O)(O)O")
"inactive"
>>> class_assignment("CCO/C([O-])=N/c1c[n+](N2CCOCC2)no1")
"inactive"
>>> class_assignment("CNC1(C)C2CCC(C2)C1(C)C (stereo unspecified)")
"inactive"
>>> class_assignment("C[C@]12C=CC(=O)C=C1CC[C@H]1[C@@H]3C[C@@H](O)[C@](O)(C(=O)CO)[C@@]3(C)C[C@H](O)[C@@]12F")
"inactive"
>>> class_assignment("Cc1ccc(Cl)c(Nc2ccccc2C(=O)O)c1Cl")
"inactive"
>>> class_assignment("CC[N+](C)(C)c1cccc(O)c1")
"inactive"
>>> class_assignment("CN(C)C/C=C(/c1ccc(Br)cc1)c1cccnc1")
"active"
>>> class_assignment("O=C(O)CN(CCOCCOCCN(CC(=O)O)CC(=O)O)CC(=O)O")
"inactive"
>>> class_assignment("Cc1ccc(S(=O)(=O)NC(=O)NN2CCCCCC2)cc1")
"inactive"
>>> class_assignment("C[C@]12CCC(=O)C=C1CC[C@@H]1[C@@H]2C(=O)C[C@@]2(C)[C@H]1CC[C@]2(O)C(=O)CO")
"inactive"
>>> class_assignment("CC(C)NNC(=O)c1ccncc1")
"inactive"
>>> class_assignment("COc1cc(C(=O)OCCCN2CCCN(CCCOC(=O)c3cc(OC)c(OC)c(OC)c3)CC2)cc(OC)c1OC")
"active"
>>> class_assignment("CCCCNc1c(C(=O)OCC)c(C)nc2c1cnn2CC")
"active"
>>> class_assignment("CNCCC(Oc1ccccc1OC)c1ccccc1 (stereo unspecified)")
"active"
>>> class_assignment("CCC(=O)c1ccc2c(c1)N(CCCN(C)C)c1ccccc1S2")
"active"
>>> class_assignment("CCNC(=O)N1CCN(CCCC(c2ccc(F)cc2)c2ccc(F)cc2)CC1")
"active"
>>> class_assignment("C=CCc1ccccc1OCC(O)CNC(C)C (stereo unspecified)")
"active"
>>> class_assignment("NS(=O)(=O)c1cc2c(cc1Cl)NC(C1CC3C=CC1C3)NS2(=O)=O (stereo unspecified)")
"inactive"
>>> class_assignment("Nc1ncn([C@@H]2O[C@H](CO)[C@@H](O)[C@H]2O)c(=O)n1")
"inactive"
>>> class_assignment("CCN(Cc1ccncc1)C(=O)C(CO)c1ccccc1 (stereo unspecified)")
"inactive"
>>> class_assignment("COC(=O)[C@H]1[C@H]2C[C@@H]3c4[nH]c5cc(OC)ccc5c4CCN3C[C@H]2C[C@@H](OC(=O)c2cc(OC)c(OC)c(OC)c2)[C@@H]1OC")
"active"
>>> class_assignment("NC(=O)N1c2ccccc2C=Cc2ccccc21")
"inactive"
>>> class_assignment("CCN(CC)CCOCCOC(=O)C1(c2ccccc2)CCCC1")
"active"
>>> class_assignment("COCC(=O)O[C@]1(CCN(C)CCCc2nc3ccccc3[nH]2)CCc2cc(F)ccc2[C@@H]1C(C)C")
"active"
>>> class_assignment("CC(C)(C)NCC(O)c1cc(O)cc(O)c1 (stereo unspecified)")
"inactive"
>>> class_assignment("CCCC(C(=O)OCCN(CC)CC)(c1ccccc1)c1ccccc1")
"active"
>>> class_assignment("NC(=O)c1ncn([C@@H]2O[C@H](CO)[C@@H](O)[C@H]2O)c1O")
"inactive"
>>> class_assignment("CSc1ccc(C(=O)c2[nH]c(=O)[nH]c2C)cc1")
"inactive"
>>> class_assignment("CCOC(=O)C1=C(C)NC(C)=C(C(=O)OC)C1c1cccc(Cl)c1Cl (stereo unspecified)")
"active"
>>> class_assignment("O=C(CCCN1CCC(O)(c2cccc(C(F)(F)F)c2)CC1)c1ccc(F)cc1")
"active"
>>> class_assignment("CN(C)CC/C=C1\\c2ccccc2COc2ccccc21")
"active"
>>> class_assignment("CC(=O)OC(C)C[N+](C)(C)C (stereo unspecified)")
"inactive"
>>> class_assignment("CC1=C(C)C(=O)C(CCCCC#CCCCC#CCO)=C(C)C1=O")
"active"
>>> class_assignment("NC(Cc1ccc(Cl)cc1)C(=O)O (stereo unspecified)")
"inactive"
>>> class_assignment("CC(C)COCC(CN(Cc1ccccc1)c1ccccc1)N1CCCC1 (stereo unspecified)")
"inactive"
>>> class_assignment("C[n+]1cc2c3c(ccc2c2ccc4cc5c(cc4c21)OCO5)OCO3")
"active"
>>> class_assignment("OCCN1CCN(CC/C=C2/c3ccccc3Sc3ccc(C(F)(F)F)cc32)CC1")
"active"
>>> class_assignment("CCN(CC)CCNC(=O)c1cc(S(C)(=O)=O)ccc1OC")
"inactive"
>>> class_assignment("FC(F)(F)c1ccccc1-n1ccnc1")
"inactive"
>>> class_assignment("O=C1NCN(c2ccccc2)C12CCN(CCCC(c1ccc(F)cc1)c1ccc(F)cc1)CC2")
"active"
>>> class_assignment("Cc1nc2ccccn2c(=O)c1CCN1CCC(C(=O)c2ccc(F)cc2)CC1")
"active"
>>> class_assignment("c1cc(CN2CCCCC2)cc(OCCCNc2nc3ccccc3s2)c1")
"active"
>>> class_assignment("C[N+](C)(C)CCOC(=O)CCC(=O)OCC[N+](C)(C)C")
"inactive"
